// provenance: the Human Domainome abundance scans (Beltran et al. 2025)

Reported abundance fitness values are given for each entry in this list.
B1: Histidine--tRNA ligase, cytoplasmic, residues 8 to 45; numbered along this chain, P12081 (parent)
chain: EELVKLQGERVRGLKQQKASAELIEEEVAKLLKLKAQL

Variants of: B1
Assay: abundance fitness (aPCA) (normalised: wild type 0, dead -1); higher = more abundant; growth selection in yeast, the domain comes from the species named
Details: Homo sapiens
measure.name: abundance fitness

In [3]: df
Out[3]:
                                     chain  endpoint_value
 0  EILVKLQGERVRGLKQQKASAELIEEEVAKLLKLKAQL          -0.369
 1  EELVKLQGERVRGLKQQKASAEVIEEEVAKLLKLKAQL             0.2
 2  EELVKLQGERVRGNKQQKASAELIEEEVAKLLKLKAQL          -0.479
 3  EELVKLQGERVRGLKQQKASAELVEEEVAKLLKLKAQL          -0.035
 4  EELVKLQGERVRGLKQQKASAELIEEEVAKLLKLKAIL           -0.29
 5  EELVKLQGERVRGLKQQKASAELIEEEVAKLLKLTAQL           0.392
 6  EELVKLQGERVRGLKQQKASAKLIEEEVAKLLKLKAQL           0.075
 7  EELVKLQGERVRGLKQQKASAELIEEEVAKLLKLRAQL          -0.005
 8  EELVKLQGERVRGLKQQKASSELIEEEVAKLLKLKAQL           0.072
 9  EELVKLQGERVRGLKQQKASAELIEEEVAKLLKYKAQL          -0.093
10  EELVKLQGEHVRGLKQQKASAELIEEEVAKLLKLKAQL          -0.131
11  EELVVLQGERVRGLKQQKASAELIEEEVAKLLKLKAQL          -0.611
12  EELVKLQGERVRGLKQQKASAELIEEEVAKLLKLYAQL          -0.518
13  EELVKLQGERVRGLKQQKASAELIEEEVAKLLKAKAQL          -0.054
14  EELVKLQIERVRGLKQQKASAELIEEEVAKLLKLKAQL           0.086
15  EELVKLQGERCRGLKQQKASAELIEEEVAKLLKLKAQL           -1.51
16  EELVKLQGERVRGLKQQKASAELIEEEVAKLLRLKAQL          -0.109
17  EELVKLQGERVRGLKQQKASAEGIEEEVAKLLKLKAQL          -0.143
18  EELVKLQGERVRNLKQQKASAELIEEEVAKLLKLKAQL           0.307
19  EELVKLQGERVRGLKQQKASAELIEEEVTKLLKLKAQL           -0.26
20  EELVKLQGERVRGLKAQKASAELIEEEVAKLLKLKAQL           0.144
21  EELVKLQGERYRGLKQQKASAELIEEEVAKLLKLKAQL          -0.552
22  EELVKLQGERVRGLKQQKASAELIEEEVAKLLGLKAQL          -0.147
23  EELVKLQGERVRHLKQQKASAELIEEEVAKLLKLKAQL           0.079
24  EELVKLQGERVRGLKQQKASAELIEEEFAKLLKLKAQL          -0.378
25  EELVKLQGERVRGLKSQKASAELIEEEVAKLLKLKAQL          -0.004
26  EELVKLQGERVRGLKQQKASAELIEEEVAKLLKLKAKL           0.041
27  EELVKLQGERVRGLKVQKASAELIEEEVAKLLKLKAQL          -0.039
28  EELVKMQGERVRGLKQQKASAELIEEEVAKLLKLKAQL             0.1
29  EELVKLQGERVRGLKQQKASAELIEEEVAKLKKLKAQL           0.105
30  EELVKVQGERVRGLKQQKASAELIEEEVAKLLKLKAQL           0.054
31  EELVKLQGERVRGLCQQKASAELIEEEVAKLLKLKAQL           -0.27
32  EELVKLQGERVRGLKPQKASAELIEEEVAKLLKLKAQL          -0.223
33  EEWVKLQGERVRGLKQQKASAELIEEEVAKLLKLKAQL           -1.54
34  EELVKLQGERVGGLKQQKASAELIEEEVAKLLKLKAQL           0.096
35  EELVKLQEERVRGLKQQKASAELIEEEVAKLLKLKAQL            0.44
36  EELVKLQGERVRGLKQQKASAELIEEEEAKLLKLKAQL           0.316
37  EELVKLQGERVRGLKQQKASAELIEEEVAKLLKLPAQL           0.394
38  EELVKLQGERVRGLKQQKAMAELIEEEVAKLLKLKAQL          -0.431
39  EELVKLQHERVRGLKQQKASAELIEEEVAKLLKLKAQL          -0.409
40  EELVKLQGERVRGLKQQKASAELIEEEVAKLLHLKAQL          -0.039
41  EELVKLQGERIRGLKQQKASAELIEEEVAKLLKLKAQL          -0.011
42  EELVKLQGERVRGLKQQKASAELIEEEVAKKLKLKAQL           0.002
43  EELVKLQGERVRGLKQQKASAELIEEEVAKLLLLKAQL           -0.34
44  EELVKLQGERVRGLKQQKASAELIESEVAKLLKLKAQL           0.184
45  EELVKLQGERVRGLKWQKASAELIEEEVAKLLKLKAQL          -0.483
46  EELVKLQGERVRGLKQQKAGAELIEEEVAKLLKLKAQL          -0.022
47  EELVWLQGERVRGLKQQKASAELIEEEVAKLLKLKAQL          -0.383
48  EELVKLQGERVRGKKQQKASAELIEEEVAKLLKLKAQL          -0.209
49  EELLKLQGERVRGLKQQKASAELIEEEVAKLLKLKAQL          -0.201
50  EELVKLQGSRVRGLKQQKASAELIEEEVAKLLKLKAQL          -0.291
51  EELVKLQGERVRGLQQQKASAELIEEEVAKLLKLKAQL           0.061
52  EELCKLQGERVRGLKQQKASAELIEEEVAKLLKLKAQL           -0.46
53  EELTKLQGERVRGLKQQKASAELIEEEVAKLLKLKAQL           -0.19
54  EELVKLKGERVRGLKQQKASAELIEEEVAKLLKLKAQL          -0.693
55  EELVALQGERVRGLKQQKASAELIEEEVAKLLKLKAQL          -0.234
56  EELVELQGERVRGLKQQKASAELIEEEVAKLLKLKAQL          -0.026
57  EELVKLQGERVRGLKQQKASAELIEEEVAKLLKLKAQD           0.003
58  EERVKLQGERVRGLKQQKASAELIEEEVAKLLKLKAQL          -0.258
